// data source = the supplement of paper PMC7411054

Tested on: HepG2-ACTB-RAB5A
test_description: phenotypically active (imaging signature differs from DMSO and reproducible) at any of 0.3-9 uM (binary (1 = active, 0 = inactive)); higher = active
experimental_context: treatment time: 24 h
Readings of phenotypically active for the listed compounds

- compound: "Cc1ccc(N(CC2=NCCN2)c2cccc(O)c2)cc1 [phentolamine]"
  phenotypically active: 0
- compound: "CS(=O)(=O)OCCCCOS(C)(=O)=O [busulfan]"
  phenotypically active: 0
- compound: "CN[C@H]1CC[C@@H](c2ccc(Cl)c(Cl)c2)c2ccccc21 [sertraline]"
  phenotypically active: 1
- compound: "COc1cc(-c2cn(C)c(=O)c3cnccc23)c(OC)cc1CN(C)C"
  phenotypically active: 1
- compound: "Clc1ccccc1C(c1ccccc1)(c1ccccc1)n1ccnc1 [Clotrimazole]"
  phenotypically active: 1
- compound: "O=C(O)[C@H](O)[C@@H](O)[C@H](O[C@@H]1O[C@H](CO)[C@H](O)[C@H](O)[C@H]1O)[C@H](O)CO [Lactobionic acid]"
  phenotypically active: 0
- compound: "Cc1ncc(-c2ccnc(Nc3ccc(S(C)(=O)=O)cc3)n2)n1C(C)C"
  phenotypically active: 1
- compound: "C[N+](C)(C)CC[N+]1(C)Cc2c(Cl)c(Cl)c(Cl)c(Cl)c2C1 [Chlorisondamine diiodide]"
  phenotypically active: 0
- compound: "O=c1cc(N2CCOCC2)oc2c(-c3cccc4c3sc3ccccc34)cccc12"
  phenotypically active: 1
- compound: "COc1cc2nc3occc3c(OC)c2cc1OC [Kokusaginine]"
  phenotypically active: 0
- compound: "O=C(Nc1ccccc1)N1CCC(Cc2cnc3ccccc3c2)CC1"
  phenotypically active: 0
- compound: "C#C[C@]1(O)CC[C@H]2[C@@H]3CCC4=Cc5oncc5C[C@]4(C)[C@H]3CC[C@@]21C [danazol]"
  phenotypically active: 0
- compound: "O=[N+]([O-])c1cc(Cl)ccc1S(=O)(=O)c1ccccc1"
  phenotypically active: 0
- compound: "NS(=O)(=O)C#Cc1ccccc1 [pifithrin-mu]"
  phenotypically active: 0

====

System: WPMY1-TP53BP1-CLTA
test_description: phenotypically active (imaging signature differs from DMSO and reproducible) at any of 0.3-9 uM (binary (1 = active, 0 = inactive)); higher = active
experimental_context: treatment time: 24 h
Counter-ions that a name gives are not always drawn.
endpoint: phenotypically active

- molecule: "Cc1cn(CCN2CCN(c3ccccc3-c3cc(C#N)cc(C(=O)NCCCN4CCCC4)c3)CC2)c2ccccc12"
  target_system: "WPMY1-TP53BP1-CLTA"
  endpoint: "phenotypically active"
  result_value: 1
- molecule: "C[C@@H]1CN(Cc2ccc(F)cc2)[C@@H](C)CN1C(=O)c1cc2c(C(=O)C(=O)N(C)C)cn(C)c2cc1Cl [SCIO 469 hydrochloride]"
  target_system: "WPMY1-TP53BP1-CLTA"
  endpoint: "phenotypically active"
  result_value: 0
- molecule: "O=C1Cc2cc(CCN3CCN(c4nsc5ccccc45)CC3)c(Cl)cc2N1 [ziprasidone]"
  target_system: "WPMY1-TP53BP1-CLTA"
  endpoint: "phenotypically active"
  result_value: 0
- molecule: "COc1ccccc1OCCNCC(O)COc1cccc2[nH]c3ccccc3c12 (stereo not given) [Carvedilol]"
  target_system: "WPMY1-TP53BP1-CLTA"
  endpoint: "phenotypically active"
  result_value: 1
- molecule: "CC(C)n1nc(-c2cc3cc(O)ccc3[nH]2)c2c(N)ncnc21"
  target_system: "WPMY1-TP53BP1-CLTA"
  endpoint: "phenotypically active"
  result_value: 1
- molecule: "CC(=O)[C@H]1CC[C@H]2[C@@H]3C=CC4=CC(=O)CC[C@@]4(C)[C@@H]3CC[C@]12C [dydrogesterone]"
  target_system: "WPMY1-TP53BP1-CLTA"
  endpoint: "phenotypically active"
  result_value: 0
- molecule: "CC1=C(/C=C/C(C)=C\\C=C\\C(C)=C\\C(=O)O)C(C)(C)CCC1 [tretinoin]"
  target_system: "WPMY1-TP53BP1-CLTA"
  endpoint: "phenotypically active"
  result_value: 1
- molecule: "CC(C)n1c(/C=C/[C@@H](O)C[C@@H](O)CC(=O)O)c(-c2ccc(F)cc2)c2ccccc21 [fluvastatin]"
  target_system: "WPMY1-TP53BP1-CLTA"
  endpoint: "phenotypically active"
  result_value: 1
- molecule: "Nc1nc2ccc(OC(F)(F)F)cc2s1 [riluzole]"
  target_system: "WPMY1-TP53BP1-CLTA"
  endpoint: "phenotypically active"
  result_value: 0
- molecule: "COc1cc(OC2CCN(C)CC2)ccc1Nc1ncc2c(n1)n(C1CCCC1)c(=O)n2C"
  target_system: "WPMY1-TP53BP1-CLTA"
  endpoint: "phenotypically active"
  result_value: 1
- molecule: "CCOc1nc(NC(=O)Cc2cc(OC)ccc2OC)cc(N)c1C#N"
  target_system: "WPMY1-TP53BP1-CLTA"
  endpoint: "phenotypically active"
  result_value: 0
- molecule: "CN1C(=O)OC(C)(C)C1=O [trimethadione]"
  target_system: "WPMY1-TP53BP1-CLTA"
  endpoint: "phenotypically active"
  result_value: 0
- molecule: "CN/C(=C/[N+](=O)[O-])NCCSCc1csc(CN(C)C)n1 [nizatidine]"
  target_system: "WPMY1-TP53BP1-CLTA"
  endpoint: "phenotypically active"
  result_value: 0
- molecule: "Cc1ccc(OCCSc2ncccn2)c(Br)c1 [ZLN 024 hydrochloride]"
  target_system: "WPMY1-TP53BP1-CLTA"
  endpoint: "phenotypically active"
  result_value: 0
- molecule: "Nc1ncnc2[nH]nc(Nc3ccc(F)cc3)c12"
  target_system: "WPMY1-TP53BP1-CLTA"
  endpoint: "phenotypically active"
  result_value: 1
- molecule: "c1ccc(-c2n[nH]cc2-c2ccnc3ccccc23)nc1"
  target_system: "WPMY1-TP53BP1-CLTA"
  endpoint: "phenotypically active"
  result_value: 0
- molecule: "Nc1ncnc2c1cnn2-c1ccccc1"
  target_system: "WPMY1-TP53BP1-CLTA"
  endpoint: "phenotypically active"
  result_value: 0
- molecule: "Cc1cc(C)nc(SCC(=O)Nc2ncc(Cc3cccc4ccccc34)s2)n1"
  target_system: "WPMY1-TP53BP1-CLTA"
  endpoint: "phenotypically active"
  result_value: 0
- molecule: "O=C(Nc1cccnc1)N1CCC(Cc2cccc(Oc3ccc(C(F)(F)F)cn3)c2)CC1"
  target_system: "WPMY1-TP53BP1-CLTA"
  endpoint: "phenotypically active"
  result_value: 0
- molecule: "O=C1CCc2c(ccc3ccccc23)O1 [Splitomicin]"
  target_system: "WPMY1-TP53BP1-CLTA"
  endpoint: "phenotypically active"
  result_value: 0
- molecule: "CC1(C)[C@@H](O)CC[C@]2(C)[C@H]3C(=O)C=C4[C@@H]5C[C@@](C)(C(=O)O)CC[C@]5(C)CC[C@@]4(C)[C@]3(C)CC[C@@H]12 [Glycyrrhetinic Acid]"
  target_system: "WPMY1-TP53BP1-CLTA"
  endpoint: "phenotypically active"
  result_value: 0
- molecule: "CC(=O)N1CCN(c2ccc(OC[C@H]3CO[C@](Cn4ccnc4)(c4ccc(Cl)cc4Cl)O3)cc2)CC1 [Ketoconazole]"
  target_system: "WPMY1-TP53BP1-CLTA"
  endpoint: "phenotypically active"
  result_value: 0
- molecule: "CN(C)c1ccc(C(=O)NCCCCCCC(=O)NO)cc1"
  target_system: "WPMY1-TP53BP1-CLTA"
  endpoint: "phenotypically active"
  result_value: 1
- molecule: "COC(=O)C1=C(C)NC(C)=C(C(=O)OC(C)C)C1c1cccc2nonc12 (stereo not given) [isradipine]"
  target_system: "WPMY1-TP53BP1-CLTA"
  endpoint: "phenotypically active"
  result_value: 0
- molecule: "CCCCc1c(O)n(-c2ccccc2)n(-c2ccccc2)c1=O [phenylbutazone]"
  target_system: "WPMY1-TP53BP1-CLTA"
  endpoint: "phenotypically active"
  result_value: 0
- molecule: "CCC1(c2ccccc2)C(=O)NCNC1=O [primidone]"
  target_system: "WPMY1-TP53BP1-CLTA"
  endpoint: "phenotypically active"
  result_value: 0
- molecule: "NC(=O)c1cccc(-c2cccc(OC(=O)NC3CCCCC3)c2)c1"
  target_system: "WPMY1-TP53BP1-CLTA"
  endpoint: "phenotypically active"
  result_value: 0
- molecule: "O=C(Nc1ccccc1)N1CCN(c2nc(-c3ccccc3)ns2)CC1"
  target_system: "WPMY1-TP53BP1-CLTA"
  endpoint: "phenotypically active"
  result_value: 0
- molecule: "C[C@H](NC(=O)c1sccc1OCc1ccc(Cl)cc1)c1ccccc1"
  target_system: "WPMY1-TP53BP1-CLTA"
  endpoint: "phenotypically active"
  result_value: 1
- molecule: "C[C@@H](CN1CCC(n2c(=O)[nH]c3cc(Cl)ccc32)CC1)NC(=O)c1ccc2ccccc2c1"
  target_system: "WPMY1-TP53BP1-CLTA"
  endpoint: "phenotypically active"
  result_value: 1
